Each entry below lists one item and its recorded PI3KA_Act Ki value.
SYSTEM_NAME: truncated PI3Kα (p110α/iSH2 p85α) (Homo sapiens (Human), UniProt P42336)
Sequence (P42336 whole entry, the tested form may be a part): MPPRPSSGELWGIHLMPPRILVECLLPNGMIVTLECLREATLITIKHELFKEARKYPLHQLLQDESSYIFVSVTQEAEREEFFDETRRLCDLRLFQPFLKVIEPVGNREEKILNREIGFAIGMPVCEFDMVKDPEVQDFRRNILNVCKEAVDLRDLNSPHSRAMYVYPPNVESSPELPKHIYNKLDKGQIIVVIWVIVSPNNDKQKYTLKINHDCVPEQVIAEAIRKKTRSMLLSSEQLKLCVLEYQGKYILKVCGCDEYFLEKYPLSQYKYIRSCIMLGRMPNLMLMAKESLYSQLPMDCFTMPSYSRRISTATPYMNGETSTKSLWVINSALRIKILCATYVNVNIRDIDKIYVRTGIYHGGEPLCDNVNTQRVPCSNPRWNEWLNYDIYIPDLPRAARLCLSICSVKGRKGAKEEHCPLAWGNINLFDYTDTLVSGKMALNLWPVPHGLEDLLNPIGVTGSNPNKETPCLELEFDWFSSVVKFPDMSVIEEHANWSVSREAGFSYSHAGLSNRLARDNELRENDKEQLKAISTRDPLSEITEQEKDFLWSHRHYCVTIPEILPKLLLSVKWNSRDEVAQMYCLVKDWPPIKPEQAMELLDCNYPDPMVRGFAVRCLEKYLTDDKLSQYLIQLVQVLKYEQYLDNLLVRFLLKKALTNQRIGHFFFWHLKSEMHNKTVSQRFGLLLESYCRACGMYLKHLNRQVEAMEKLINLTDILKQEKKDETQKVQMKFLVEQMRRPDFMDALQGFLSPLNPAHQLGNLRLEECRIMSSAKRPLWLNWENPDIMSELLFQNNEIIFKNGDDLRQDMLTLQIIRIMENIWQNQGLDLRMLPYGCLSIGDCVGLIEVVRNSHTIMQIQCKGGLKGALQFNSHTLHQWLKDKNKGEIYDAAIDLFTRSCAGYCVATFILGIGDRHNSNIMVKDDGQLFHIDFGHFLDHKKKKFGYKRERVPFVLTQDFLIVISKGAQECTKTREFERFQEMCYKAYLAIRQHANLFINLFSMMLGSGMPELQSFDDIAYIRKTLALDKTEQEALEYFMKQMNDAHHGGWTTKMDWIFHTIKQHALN
MEASUREMENT_NOTES: PI3KA_Act fluorescence polarization kinase assay (Ki)
Format: biochemical
TEST_SETTINGS: 1 mM ATP
Record the value in nM, omitting the unit from your answer.

Some solved cases for reference:
- MOLECULE: "C[C@]1(N2CCc3c(-c4cnc(N)nc4)nc(N4CCOCC4)nc32)CCN(C2CCNC2=O)C1 (single isomer, unassigned)"
  READOUT_NUMBER: 0.091
- MOLECULE: "Nc1ncc(-c2nc(N3CCOCC3)nc3c2CCN3[C@H]2CCN(S(=O)(=O)C3CC3)C2)cn1"
  READOUT_NUMBER: 0.067
- MOLECULE: "C[C@]1(N2CCc3c(-c4cnc(N)nc4)nc(N4CCOCC4)nc32)CCN(C(=O)[C@H](N)C2CC2)C1.Cl"
  READOUT_NUMBER: 0.019

# context switch: different molecule, same PI3KA_Act Ki
// PI3KA_Act Ki lookup, key: `CS(=O)(=O)N1CC[C@H](N2CCc3c(-c4cnc(N)nc4)nc(N4CCOCC4)nc32)C1`
0.153

---

SYSTEM_NAME: full-length PI3Kα (full-length p110α/p85α) (Homo sapiens (Human), UniProt P42336)
Sequence (P27986 whole entry partner, one chain of several): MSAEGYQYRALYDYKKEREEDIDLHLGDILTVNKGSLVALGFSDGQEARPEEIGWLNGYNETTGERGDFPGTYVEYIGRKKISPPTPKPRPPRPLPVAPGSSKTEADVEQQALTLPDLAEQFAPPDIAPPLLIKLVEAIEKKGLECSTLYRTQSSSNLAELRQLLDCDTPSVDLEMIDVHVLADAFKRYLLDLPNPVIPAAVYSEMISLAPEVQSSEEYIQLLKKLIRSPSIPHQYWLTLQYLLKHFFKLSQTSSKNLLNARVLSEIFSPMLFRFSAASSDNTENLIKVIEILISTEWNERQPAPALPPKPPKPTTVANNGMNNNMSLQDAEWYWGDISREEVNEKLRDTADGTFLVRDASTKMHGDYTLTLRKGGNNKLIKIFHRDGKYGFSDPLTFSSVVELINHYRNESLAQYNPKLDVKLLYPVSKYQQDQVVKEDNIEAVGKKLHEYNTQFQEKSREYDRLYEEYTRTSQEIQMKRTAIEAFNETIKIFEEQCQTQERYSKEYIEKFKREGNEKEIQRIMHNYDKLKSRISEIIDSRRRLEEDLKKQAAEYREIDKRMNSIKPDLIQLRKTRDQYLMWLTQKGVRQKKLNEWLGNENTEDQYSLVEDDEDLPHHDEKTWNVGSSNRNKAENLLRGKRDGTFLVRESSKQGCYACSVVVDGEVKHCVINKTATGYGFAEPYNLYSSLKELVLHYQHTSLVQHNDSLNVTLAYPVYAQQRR
MEASUREMENT_NOTES: PI3KA_FL fluorescence polarization kinase assay (Ki)
Format: biochemical
TEST_SETTINGS: 41 μM ATP
Values of PI3KA_FL Ki greater than or equal to 0.8 nM map to 1.0; values below map to 0.0.

Check out these entries, answers already filled in.
- MOLECULE: "C[C@H]1COCCN1c1nc(-c2cnc(N)nc2)c2c(n1)N([C@@H]1CCN(C(=O)NC(C)(C)C)C1)CC2 [Example 138]"
  CLASS_NAME: 1.0
- MOLECULE: "CNS(=O)(=O)N1C[C@@H](N2CCc3c(-c4cnc(N)nc4)nc(N4CCOC[C@@H]4C)nc32)[C@H](OC)C1 [Example 117]"
  CLASS_NAME: 0.0
- MOLECULE: "CC(=O)N1C[C@@H](N2CCc3c(-c4cnc(N)nc4)nc(N4CCOCC4)nc32)[C@@H](C)C1 [Example 52]"
  CLASS_NAME: 1.0

Hello, I need to know if CO[C@H]1CC[C@H](N2CCc3c(-c4cnc(N)nc4)nc(N4CCOCC4)nc32)CC1 [Example 36] has measured PI3KA_FL Ki not below 0.8 nM. Thanks!
1.0

Please check the record CC(=O)N[C@@H]1CC[C@H]1N1CCc2c(-c3cnc(N)nc3)nc(N3CCOCC3)nc21 [Example 50] and state if its PI3KA_FL Ki is at or above 0.8 nM.
1.0

hey, is PI3KA_FL Ki for this one >= 0.8 nM? Nc1ncc(-c2nc(N3CCOCC3)nc3c2CCN3[C@@H]2CCN(S(N)(=O)=O)C2)cn1 [Example 84]
1.0

API: above_or_equal(metric=PI3KA_FL Ki, cutoff=0.8 nM) for item CO[C@@H]1CN(C(C)=O)C[C@H]1N1CCc2c(-c3cnc(N)nc3)nc(N3CCOC[C@@H]3C)nc21 [Example 98]
1.0

// inclusive: PI3KA_FL Ki at least 0.8 nM? input: NC(=O)N1CC(N2CCc3c(-c4cnc(N)nc4)nc(N4CCOCC4)nc32)C1 [Example 86]
1.0

Exam item: decide whether the reported PI3KA_FL Ki for CC(=O)N1C[C@@H](F)[C@@H](N2CCc3c(-c4cnc(N)nc4)nc(N4CCOCC4)nc32)C1 (single isomer, unassigned) [Example 74] is at least 0.8 nM.
1.0

---

The entries below come with measured PI3KA_Act Ki values attached.
SYSTEM_NAME: truncated PI3Kα (p110α/iSH2 p85α) (Homo sapiens (Human), UniProt P42336)
MEASUREMENT_NOTES: PI3KA_Act fluorescence polarization kinase assay (Ki)
Type: biochemical
TEST_SETTINGS: 1 mM ATP
Write the number in nM without appending the unit.

- COMPOUND: "CS(=O)(=O)N1C[C@H]2C[C@@]2(N2CCc3c(-c4cnc(N)nc4)nc(N4CCOCC4)nc32)C1 [Example 436]"
  PI3KA_Act Ki [nM]: 0.189

// lookup PI3KA_Act Ki for CC(=O)N1CC(OC(=O)N2CC[C@@H](N3CCc4c(-c5cnc(N)nc5)nc(N5CCOC[C@@H]5C)nc43)C2)C1 [Example 136]
0.099

Which PI3KA_Act Ki is listed for C[C@]1(N2CCc3c(-c4cnc(N)nc4)nc(N4CCOCC4)nc32)CCN(C(=O)[C@](C)(N)C(F)(F)F)C1.Cl [Example 312] ?
0.037

Could you tell me which PI3KA_Act Ki is on file for C[C@@]1(N2CCc3c(-c4cnc(N)nc4)nc(N4CCOCC4)nc32)CCNC1 [Example 215] ?
0.476

---

SYSTEM_NAME: truncated PI3Kα (p110α/iSH2 p85α) (Homo sapiens (Human), UniProt P42336)
MEASUREMENT_NOTES: PI3KA_Act fluorescence polarization kinase assay (Ki)
Assay type: biochemical
TEST_SETTINGS: 1 mM ATP, hydrochloride
Where a name gives a salt, the structure may show the parent alone.
REPORTED_ENDPOINT: PI3KA_Act Ki
Report field: quantity (unit follows the number).

- COMPOUND: "C[C@H]1COCCN1c1nc(-c2cnc(N)nc2)c2c(n1)N(C1(C)CCCNC1)CC2 (single isomer, unassigned) [Example 517, hydrochloride]"
  PI3KA_Act Ki: "9.319 nM"
- COMPOUND: "CC1(N2CCc3c(-c4cnc(N)nc4)nc(N4CCOCC4)nc32)CCCNC1 (single isomer, unassigned) [Example 431, hydrochloride]"
  PI3KA_Act Ki: "14.544 nM"
- COMPOUND: "CC1(N2CCc3c(-c4cnc(N)nc4)nc(N4CCOCC4)nc32)CCCNC1 (single isomer, unassigned) [Example 432, hydrochloride]"
  PI3KA_Act Ki: "11.739 nM"
- COMPOUND: "C[C@H]1COCCN1c1nc(-c2cnc(N)nc2)c2c(n1)N([C@@]1(C)CCN(C(=O)C3(N)CCOC3)C1)CC2 (single isomer, unassigned) [Example 502, hydrochloride]"
  PI3KA_Act Ki: "0.064 nM"
- COMPOUND: "C[C@H]1COCCN1c1nc(-c2cnc(N)nc2)c2c(n1)N([C@@]1(C)CCN(C(=O)C3(N)CCOC3)C1)CC2 (single isomer, unassigned) [Example 503, hydrochloride]"
  PI3KA_Act Ki: "0.091 nM"

// lookup PI3KA_Act Ki for C[C@H]1COCCN1c1nc(-c2cnc(N)nc2)c2c(n1)N(C1(C)CCCNC1)CC2 (single isomer, unassigned) [Example 518, hydrochloride]
11.285 nM

Sample CC1(C(=O)N2CC[C@](C)(N3CCc4c(-c5cnc(N)nc5)nc(N5CCOCC5)nc43)C2)CCCO1 (single isomer, unassigned) [Example 375, hydrochloride] — what was its PI3KA_Act Ki?
0.043 nM

---

SYSTEM_NAME: truncated PI3Kα (p110α/iSH2 p85α) (Homo sapiens (Human))
MEASUREMENT_NOTES: PI3KA_Act fluorescence polarization kinase assay (Ki)
TEST_SETTINGS: 1 mM ATP
Listed compounds paired with reported pKi
Field pKi (float): negative decimal logarithm of the concentration in molar.

Guide cases for pKi, answers given:
- COMPOUND: "CS(=O)(=O)N1C[C@@H]2C[C@H]1[C@H]2N1CCc2c(-c3cnc(N)nc3)nc(N3CCOCC3)nc21"
  pKi: 9.36
- COMPOUND: "C[C@H]1COCCN1c1nc(-c2cnc(N)nc2)c2c(n1)N([C@@H]1[C@@H]3C[C@H]1N(C(=O)OC(C)(C)C)C3)CC2"
  pKi: 8.73

Using the record for `CC(C)(C)OC(=O)N1C[C@@H]2C[C@H]1[C@H]2N1CCc2c(-c3cnc(N)nc3)nc(N3CCOCC3)nc21` , report its pKi.
8.13

Quick one: pKi of `CCNC(=O)N1CC[C@](C)(N2CCc3c(-c4cnc(N)nc4)nc(N4CCOCC4)nc32)C1` ?
10.09

Would you kindly share the measured pKi for `[2H]C1([2H])OC([2H])([2H])C([2H])([2H])N(c2nc(-c3cnc(N)nc3)c3c(n2)N([C@@]2(C)CCN(C(=O)C(C)(C)NC(=O)OC(C)(C)C)C2)CC3)C1([2H])[2H]` ?
9.16

---

We begin with a simple list: items and their reported PI3KA_Act Ki.
SYSTEM_NAME: truncated PI3Kα (p110α/iSH2 p85α) (Homo sapiens (Human), UniProt P42336)
MEASUREMENT_NOTES: PI3KA_Act fluorescence polarization kinase assay (Ki)
Format: biochemical
TEST_SETTINGS: 1 mM ATP
Numeric only. Scale: pM

I have this compound here, CC(C)(O)C(=O)N1CC(C)(N2CCc3c(-c4cnc(N)nc4)nc(N4CCOCC4)nc32)C1 [Example 242] , and I need its recorded PI3KA_Act Ki.
158

Reported PI3KA_Act Ki for CNS(=O)(=O)N1CC(N2CCc3c(-c4cnc(N)nc4)nc(N4CCOC[C@@H]4C)nc32)C1 [Example 122] : what is it?
64

# input compound: CCS(=O)(=O)N1CC[C@H](N2CCc3c(-c4cnc(N)nc4)nc(N4CCOC[C@@H]4C)nc32)C1 [Example 119] ; wanted: its PI3KA_Act Ki
59

For the compound shown here, CC(=O)N1CC(N2CCc3c(-c4cnc(N)nc4)nc(N4CCOC[C@@H]4C)nc32)C1 [Example 451] , give the reported PI3KA_Act Ki.
595
